- PROTOCOL DESCRIPTION: Puerarin bidirectional transport across Calu-3 cell monolayers
- Type: in vitro ADME, human
- CONDITION INFO: human, Papp (B→A), puerarin 60 μg/mL + paeoniflorin 48 μg/mL

>  <RECORD SMILES>
O=c1c(-c2ccc(O)cc2)coc2c([C@@H]3O[C@H](CO)[C@@H](O)[C@H](O)[C@H]3O)c(O)ccc12

>  <READOUT UNIT>
×10⁻⁶ cm/s

>  <Papp B→A at 180 min, 60 μg/mL>
1.29

$$$$

---

- PROTOCOL DESCRIPTION: Puerarin bidirectional transport across Calu-3 cell monolayers
- Assay type: in vitro ADME, human
- CONDITION INFO: human, Papp (B→A), puerarin 120 μg/mL alone

>  <RECORD SMILES>
O=c1c(-c2ccc(O)cc2)coc2c([C@@H]3O[C@H](CO)[C@@H](O)[C@H](O)[C@H]3O)c(O)ccc12

>  <Papp B→A at 180 min, 120 μg/mL, ×10⁻⁶ cm/s>
1.27

$$$$

---

- PROTOCOL DESCRIPTION: Puerarin bidirectional transport across Calu-3 cell monolayers
- Format: in vitro ADME, human
- CONDITION INFO: human, Papp (B→A), puerarin 30 μg/mL alone

>  <RECORD SMILES>
O=c1c(-c2ccc(O)cc2)coc2c([C@@H]3O[C@H](CO)[C@@H](O)[C@H](O)[C@H]3O)c(O)ccc12

>  <Papp B→A at 180 min, 30 μg/mL [×10⁻⁶ cm/s]>
1.17

$$$$

---

- PROTOCOL DESCRIPTION: Puerarin bidirectional transport across Calu-3 cell monolayers
- Type: in vitro ADME, human
- CONDITION INFO: human, efflux ratio (ER), puerarin alone, each concentration 30, 60, 120 μg/mL

>  <RECORD SMILES>
O=c1c(-c2ccc(O)cc2)coc2c([C@@H]3O[C@H](CO)[C@@H](O)[C@H](O)[C@H]3O)c(O)ccc12

>  <efflux ratio at 180 min>
< 1.5

$$$$

---

- PROTOCOL DESCRIPTION: Puerarin bidirectional transport across Calu-3 cell monolayers
- Type: in vitro ADME, human
- CONDITION INFO: human, Papp (B→A), puerarin 60 μg/mL + paeoniflorin 24 μg/mL

>  <COMPOUND>
O=c1c(-c2ccc(O)cc2)coc2c([C@@H]3O[C@H](CO)[C@@H](O)[C@H](O)[C@H]3O)c(O)ccc12 [puerarin]

>  <Papp B→A at 180 min, 60 μg/mL>
12.5 nm/s

$$$$

---

- PROTOCOL DESCRIPTION: Puerarin bidirectional transport across Calu-3 cell monolayers
- Type: in vitro ADME, human
- CONDITION INFO: human, Papp (B→A), puerarin 60 μg/mL + paeoniflorin 24 μg/mL + menthol 30 μg/mL
READOUT KIND: Papp B→A at 180 min, 60 μg/mL (×10⁻⁶ cm/s)

>  <RECORD SMILES>
O=c1c(-c2ccc(O)cc2)coc2c([C@@H]3O[C@H](CO)[C@@H](O)[C@H](O)[C@H]3O)c(O)ccc12

>  <READOUT UNIT>
×10⁻⁶ cm/s

>  <QUANTITATIVE RESULT>
1.91

$$$$

---

- PROTOCOL DESCRIPTION: Puerarin bidirectional transport across Calu-3 cell monolayers
- Assay type: in vitro ADME, human
- CONDITION INFO: human, ER (B→A/A→B), puerarin 30 μg/mL alone

>  <RECORD SMILES>
O=c1c(-c2ccc(O)cc2)coc2c([C@@H]3O[C@H](CO)[C@@H](O)[C@H](O)[C@H]3O)c(O)ccc12

>  <efflux ratio at 180 min, 30 μg/mL>
0.963

$$$$

---

- PROTOCOL DESCRIPTION: Puerarin bidirectional transport across Calu-3 cell monolayers
- Assay type: in vitro ADME, human
- CONDITION INFO: human, Papp (A→B), puerarin 60 μg/mL + paeoniflorin 12 μg/mL

>  <RECORD SMILES>
O=c1c(-c2ccc(O)cc2)coc2c([C@@H]3O[C@H](CO)[C@@H](O)[C@H](O)[C@H]3O)c(O)ccc12

>  <Papp A→B at 180 min, 60 μg/mL, ×10⁻⁶ cm/s>
1.24

$$$$

---

- PROTOCOL DESCRIPTION: Puerarin bidirectional transport across Calu-3 cell monolayers
- Assay type: in vitro ADME, human
- CONDITION INFO: human, Papp (B→A), puerarin 60 μg/mL alone

>  <MOLECULE>
O=c1c(-c2ccc(O)cc2)coc2c([C@@H]3O[C@H](CO)[C@@H](O)[C@H](O)[C@H]3O)c(O)ccc12 [puerarin]

>  <Papp B→A at 180 min, 60 μg/mL (×10⁻⁶ cm/s)>
1.24

$$$$

---

- PROTOCOL DESCRIPTION: Puerarin bidirectional transport across Calu-3 cell monolayers
- Assay type: in vitro ADME, human
- CONDITION INFO: human, Papp (A→B), puerarin 60 μg/mL + menthol 60 μg/mL

>  <RECORD SMILES>
O=c1c(-c2ccc(O)cc2)coc2c([C@@H]3O[C@H](CO)[C@@H](O)[C@H](O)[C@H]3O)c(O)ccc12

>  <READOUT UNIT>
×10⁻⁶ cm/s

>  <Papp A→B at 180 min, 60 μg/mL>
1.79

$$$$

---

- PROTOCOL DESCRIPTION: Puerarin bidirectional transport across Calu-3 cell monolayers
- Format: in vitro ADME, human
- CONDITION INFO: human, Papp (B→A), puerarin 60 μg/mL + menthol 15 μg/mL

>  <RECORD SMILES>
O=c1c(-c2ccc(O)cc2)coc2c([C@@H]3O[C@H](CO)[C@@H](O)[C@H](O)[C@H]3O)c(O)ccc12

>  <Papp B→A at 180 min, 60 μg/mL>
1.36 ×10⁻⁶ cm/s

$$$$

---

- PROTOCOL DESCRIPTION: Puerarin bidirectional transport across Calu-3 cell monolayers
- Type: in vitro ADME, human
- CONDITION INFO: human, Papp (A→B), puerarin 30 μg/mL alone

>  <RECORD SMILES>
O=c1c(-c2ccc(O)cc2)coc2c([C@@H]3O[C@H](CO)[C@@H](O)[C@H](O)[C@H]3O)c(O)ccc12

>  <Papp A→B at 180 min, 30 μg/mL [×10⁻⁶ cm/s]>
1.22

$$$$

---

- PROTOCOL DESCRIPTION: Puerarin bidirectional transport across Calu-3 cell monolayers
- Format: in vitro ADME, human
- CONDITION INFO: human, Papp (A→B), puerarin 60 μg/mL + paeoniflorin 12 μg/mL + menthol 15 μg/mL

>  <MOLECULE>
O=c1c(-c2ccc(O)cc2)coc2c([C@@H]3O[C@H](CO)[C@@H](O)[C@H](O)[C@H]3O)c(O)ccc12 [puerarin]

>  <Papp A→B at 180 min, 60 μg/mL, ×10⁻⁶ cm/s>
1.3

$$$$
